Tested on: blood pressure
assay.text: BP (Hypotensive activity)
Type: in vivo
details: intravenous, allobarbital-anaesthetised dog
quantity: BP (Hypotensive activity), relative to PGE1
# respond with the number and nothing more

Some solved entries appear below for comparison.
* CCCCC[C@H](O)/C=C/[C@@H]1[C@H]2CC(CCCCC(=O)O)S[C@H]2C[C@H]1O (mixture of isomers) | 0.2
* CCCC[C@H](C)[C@H](O)/C=C/[C@@H]1[C@H]2CC(CCCCC(=O)OC)S[C@H]2C[C@H]1O (mixture of isomers) | 0.55
* CCCCC[C@H](O)/C=C/[C@H]1[C@H](O)CC(=O)[C@@H]1CCCCCCC(=O)O [PGE1, reference compound] | 1
* CCCCC[C@H](O)/C=C/[C@@H]1[C@H]2CC(CCCCC(=O)OC)S[C@H]2C[C@H]1O (mixture of isomers) | 0.2

Next compound, please.
Need BP (Hypotensive activity), relative to PGE1 of CCCCC[C@H](O)/C=C/[C@@H]1[C@H]2C/C(=C/CCCC(=O)OC)O[C@H]2C[C@H]1O [PGI2 methyl ester, reference compound] , thanks.
20

###

System: gastric acid secretion
assay.text: GSI (Inhibitory activity on gastric acid secretion)
Type: in vivo
details: increase in gastric acid pH from 2.0-2.5 to at least 4.0 in 50% of pentagastrin-treated rats, perfused intravenously
Reported GSI (Inhibitory activity on gastric acid secretion), relative to PGE1 by item:

Some solved entries appear below for comparison.
• CCCCC1([C@H](O)/C=C/[C@@H]2[C@H]3CC(CCCCC(=O)OC)S[C@H]3C[C@H]2O)CCC1 (stereo partly drawn) = 0.3
• CCCCC[C@H](O)/C=C/[C@H]1[C@H](O)CC(=O)[C@@H]1CCCCCCC(=O)O [PGE1, reference compound] = 1
• CCCCC[C@H](O)/C=C/[C@@H]1[C@H]2CC(CCCCC(=O)OC)S[C@H]2C[C@H]1O (mixture of isomers) = < 0.1
• CCCCC[C@H](O)/C=C/[C@@H]1[C@H]2CC(CCCCC(=O)O)S[C@H]2C[C@H]1O (mixture of isomers) = < 0.1
• CCCCC(C)(C)[C@H](O)/C=C/[C@@H]1[C@H]2CC(CCCCC(=O)OC)S[C@H]2C[C@H]1O (mixture of isomers) = < 0.3

Next compound, please.
// fetch gastric acid secretion GSI (Inhibitory activity on gastric acid secretion), relative to PGE1 for CCCC[C@H](C)[C@H](O)/C=C/[C@@H]1[C@H]2CC(CCCCC(=O)OC)S[C@H]2C[C@H]1O (mixture of isomers)
< 0.3

###

Reported LD50 by item:
assay.text: LD50 (Acute toxicity tests)
details: mouse, in vivo, iv; injected intravenously into mice
Use mg/kg as the unit, but write only the number.

Some solved entries appear below for comparison.
- CCCCC[C@H](O)/C=C/[C@@H]1[C@H]2CC(CCCCC(=O)OC)S[C@H]2C[C@H]1O (mixture of isomers): 100
- CCCCC(C)(C)[C@H](O)/C=C/[C@@H]1[C@H]2CC(CCCCC(=O)OC)S[C@H]2C[C@H]1O (mixture of isomers): 25

Need LD50 of CCCCC1([C@H](O)/C=C/[C@@H]2[C@H]3CC(CCCCC(=O)OC)S[C@H]3C[C@H]2O)CCC1 (stereo partly drawn) , thanks.
100
